# Measured On: hPPARδ (Homo sapiens)
# Construct: expressed in transfected cells; host or cells: Jump-In GripTite HEK293
# Sequence (Q03181 211-439 limits assumed): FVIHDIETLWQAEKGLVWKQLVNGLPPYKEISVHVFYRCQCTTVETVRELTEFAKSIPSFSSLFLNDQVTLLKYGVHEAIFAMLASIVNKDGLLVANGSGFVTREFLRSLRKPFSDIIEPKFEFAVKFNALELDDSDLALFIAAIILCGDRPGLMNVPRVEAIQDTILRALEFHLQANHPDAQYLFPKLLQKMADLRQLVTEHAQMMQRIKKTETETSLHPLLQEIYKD
# Assay Overview: PPAR receptor transactivation assay, human PPARδ
# Assay type: cell-based
# Condition Context: Human PPARδ
Assay Metric: EC50 (nM)
Give bare numbers, in nM.

Query (compound): Cc1cc(OC/C=C(/c2ccc(F)cc2)c2ccc(C#CCN3CCOCC3)cc2)ccc1OCC(=O)O ; field requested: EC50 31

---

# Measured On: hPPARα (Homo sapiens)
# Construct: expressed in transfected cells; host or cells: Jump-In GripTite HEK293
# Sequence (Q07869 239-466 limits assumed): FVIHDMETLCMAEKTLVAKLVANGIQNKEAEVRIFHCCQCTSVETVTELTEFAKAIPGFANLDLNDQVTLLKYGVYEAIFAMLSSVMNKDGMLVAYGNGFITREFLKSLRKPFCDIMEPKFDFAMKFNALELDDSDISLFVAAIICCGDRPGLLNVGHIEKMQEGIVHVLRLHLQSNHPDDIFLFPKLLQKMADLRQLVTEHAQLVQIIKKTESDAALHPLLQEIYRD
# Assay Overview: PPAR receptor transactivation assay, human PPARα
# Type: cell-based
# Condition Context: Human PPARα; read-out: EC50 (nM) Mean
Assay Metric: EC50

# EC50 lookup, item Cc1cc(OC/C=C(/c2ccc(F)cc2)c2ccc(C#CCN3CCOCC3)cc2)ccc1OCC(=O)O [Compound 1] > 10000 nM

---

# Measured On: PPARα (Mus musculus, UniProt P23204)
# Construct: expressed in transfected cells; host or cells: Jump-In GripTite HEK293
# Sequence (P23204 239-466 limits assumed): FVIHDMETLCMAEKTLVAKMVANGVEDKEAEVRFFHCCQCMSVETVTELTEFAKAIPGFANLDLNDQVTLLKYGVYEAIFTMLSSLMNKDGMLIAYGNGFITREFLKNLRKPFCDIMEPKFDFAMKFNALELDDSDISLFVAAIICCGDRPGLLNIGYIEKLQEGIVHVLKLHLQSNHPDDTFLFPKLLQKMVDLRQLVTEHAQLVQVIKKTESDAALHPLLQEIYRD
# Assay Overview: PPAR receptor transactivation assay, mouse PPARα
# Type: cell-based
Assay Metric: EC50

Consider the compound shown here: Cc1cc(OC/C=C(/c2ccc(F)cc2)c2ccc(C#CCN3CCOCC3)cc2)ccc1OCC(=O)O What is its recorded EC50? > 10000 nM

---

# Measured On: PPARδ (Mus musculus, UniProt P35396)
# Construct: expressed in transfected cells; host or cells: Jump-In GripTite HEK293
# Sequence (P35396 210-438 limits assumed): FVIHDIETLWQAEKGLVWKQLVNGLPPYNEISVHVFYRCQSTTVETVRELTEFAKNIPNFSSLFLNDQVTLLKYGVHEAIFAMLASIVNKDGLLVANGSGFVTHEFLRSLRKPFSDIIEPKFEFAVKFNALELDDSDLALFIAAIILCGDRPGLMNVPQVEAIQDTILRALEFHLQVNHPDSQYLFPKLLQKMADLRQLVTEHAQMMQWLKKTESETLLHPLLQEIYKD
# Assay Overview: PPAR receptor transactivation assay, mouse PPARδ
# Assay type: cell-based
Assay Metric: EC50 (nM)
Answers are plain numbers, in nM.

I'd like to know its EC50. The compound in question is Cc1cc(OC/C=C(/c2ccc(F)cc2)c2ccc(C#CCN3CCOCC3)cc2)ccc1OCC(=O)O 240

---

# Measured On: PPARγ (Macaca mulatta)
# Construct: expressed in transfected cells; host or cells: Jump-In GripTite HEK293
# Sequence (O18924 238-503 limits assumed): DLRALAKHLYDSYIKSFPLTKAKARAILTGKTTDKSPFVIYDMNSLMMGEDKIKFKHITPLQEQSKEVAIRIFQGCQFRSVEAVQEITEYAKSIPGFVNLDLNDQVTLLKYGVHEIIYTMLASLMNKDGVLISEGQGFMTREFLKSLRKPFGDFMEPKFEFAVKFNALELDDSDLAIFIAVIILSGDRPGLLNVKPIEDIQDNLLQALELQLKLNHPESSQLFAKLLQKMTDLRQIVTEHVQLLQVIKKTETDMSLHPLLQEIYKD
# Assay Overview: PPAR receptor transactivation assay, monkey PPARγ
# Assay type: cell-based
# Description: The genes of interest were synthesized and cloned into an appropriate Jump-In™ retargeting vector following the User Guide of the Jump-In™ T-REx™ HEK293 Retargeting Kit (ThermoFisher Catalog No A15008). […] Jump-In™ GripTite™ HEK293 rPPAR Alpha, Delta or Gamma UAS-bla-Gal4 cell pools were plated in a 384-well plate format (20,000 cells per well) in OptiMeM without FBS in replicates (n=4). […] The blue/green readout was measured on a fluorescent plate reader (Tecan Safire II).
Assay Metric: EC50

Reported EC50, compound Cc1cc(OC/C=C(/c2ccc(F)cc2)c2ccc(C#CCN3CCOCC3)cc2)ccc1OCC(=O)O : ____ > 1000 nM

---

# Measured On: PPARδ (UniProt I0FFS1)
# Construct: This is inferred from the cell pool name 'UAS-bla-Gal4' and from the general description in b82 and b85
# Assay Overview: PPAR receptor transactivation assay, monkey PPARδ
# Assay type: cell-based
Assay Metric: EC50 (nM)
One number for each entry, in nM.

Can you look up the measured EC50 of Cc1cc(OC/C=C(/c2ccc(F)cc2)c2ccc(C#CCN3CCOCC3)cc2)ccc1OCC(=O)O [Compound 1] for me? 6.6

---

# Measured On: hPPARγ (Homo sapiens, UniProt P37231)
# Construct: expressed in transfected cells; host or cells: Jump-In GripTite HEK293
# Sequence (P37231 238-503 limits assumed): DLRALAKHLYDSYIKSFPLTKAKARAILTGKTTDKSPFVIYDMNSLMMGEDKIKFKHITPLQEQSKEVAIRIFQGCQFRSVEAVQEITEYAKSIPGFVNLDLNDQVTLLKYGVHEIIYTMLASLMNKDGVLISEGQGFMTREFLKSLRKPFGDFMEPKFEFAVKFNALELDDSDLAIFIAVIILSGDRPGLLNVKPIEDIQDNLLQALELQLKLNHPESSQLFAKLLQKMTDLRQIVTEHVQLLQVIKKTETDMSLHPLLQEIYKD
# Assay Overview: PPAR receptor transactivation assay, human PPARγ
# Type: cell-based
# Condition Context: Human PPARγ
Assay Metric: EC50

// fetch hPPARγ (Homo sapiens, UniProt P37231) EC50 for Cc1cc(OC/C=C(/c2ccc(F)cc2)c2ccc(C#CCN3CCOCC3)cc2)ccc1OCC(=O)O > 10000 nM

// provenance: patent US20220117972A1
